src = patent US11634477

# MEASURED_ON: SARS-CoV-2 RBD (SARS-CoV-2, UniProt P0DTC2)
# ASSAY_SUMMARY: ELISA
EXPERIMENTAL_ENDPOINT: EC50 (ng/mL)

| BINDER | EXPERIMENTAL_ENDPOINT | DATA_VALUE |
| --- | --- | --- |
| C130 (antibody, V domains shown) VH: QVQLVQSGAEVKKPGASVKVSCKASGYTFTNYYMHWVRQAPGQGLEWMGIINPSGGSTGYAQKFQGRVTMTRDTSTSTVYMELSSLRSEDTAVYYCARSRPTPDWYFDLWGRGTLVTVSS VL: SYELTQPPSVSVAPGKTARITCGGNNIGSKSVHWYQQKPGQAPVLVIYYDSDRPSGIPERFSGSNSGNTATLTISRVEAGDEADYYCQVWDSSSDHPGVVFGGGTKLTVL | EC50 | 2.05 |
| C117 (antibody, V domains shown) VH: QVQLVESGGGVVQPGRSLRLSCAASGFTFSTYAMHWVRQAPGEGLEWVAVISYDGSNTYYADSVKGRFTISRDNSKNTLYLQMNSLRAEDTAVYYCARDPIWFGELLSPPFVHFDYWGQGTLVTVSS VL: QSVLTQPPSVSAAPGQKVTISCSGSSSNIGNNLVSWYQQLPGTAPKLLIYENNKRPSGIPDRFSGSKSGTSATLGITGLQTGDEADYYCGAWDSSLSAGGVYVFGTGTKVTVL | EC50 | 5.38 |
